# study target: HIV-1 integrase (IN) (Human immunodeficiency virus type 1 group M subtype B, UniProt P12497)
# assay: In vitro integrase catalytic assay, 3'-processing (3'-P)
# Format: biochemical
# particulars: 400 nM IN, 20 nM 32P-labeled 21T/21B DNA, 37 °C, 2 h
Where a SMILES comes first, the peptide text is derived from it.

# compound, IC50
records = [
    ("CC[C@H](C)[C@H](NC(=O)[C@H](CCCNC(=N)N)NC(=O)[C@H](Cc1ccccc1)NC(=O)[C@H](Cc1c[nH]cn1)NC(=O)[C@@H](NC(=O)[C@H](Cc1ccccc1)NC(C)=O)[C@@H](C)CC)C(=O)NCC(N)=O [Peptide 1c, Ac-FIHFRIG-amide] (Ac-FIHFRIG-NH2)", "23.5 µM"),
    ("CC[C@H](C)[C@H](NC(=O)[C@H](C)N)C(=O)N[C@@H](Cc1c[nH]cn1)C(=O)N[C@@H](Cc1ccccc1)C(=O)N[C@@H](CCCNC(=N)N)C(=O)N[C@H](C(=O)NCC(=O)O)[C@@H](C)CC [Peptide 8a, AIHFRIG] (H-AIHFRIG-OH)", "86.3 µM"),
    ("CC[C@H](C)[C@H](NC(=O)[C@H](CCCNC(=N)N)NC(=O)[C@H](Cc1ccccc1)NC(=O)[C@H](Cc1c[nH]cn1)NC(=O)[C@@H](NC(=O)[C@@H](N)Cc1ccccc1)[C@@H](C)CC)C(=O)NCC(=O)O [Peptide 1a, FIHFRIG] (H-FIHFRIG-OH)", "17.6 µM"),
    ("CC[C@H](C)[C@H](NC(=O)[C@@H](N)Cc1ccccc1)C(=O)N[C@@H](Cc1c[nH]cn1)C(=O)N[C@@H](Cc1ccccc1)C(=O)N[C@@H](CCCNC(=N)N)C(=O)N[C@@H](C)C(=O)NCC(=O)O [Peptide 3a, FIHFRAG] (H-FIHFRAG-OH)", "66.5 µM"),
]
